System: Rattus norvegicus
Assay: Antiinflammatory activity in Wistar rat assessed as inhibition of carrageenan-induced paw edema administered orally at equimolar oral dose relative to 10 mg/kg flurbiprofen measured after 3 hrs of carrageenan challenge
Format: functional
Labels assigned by inhibition in vivo range: I (below 30%), II (30% to below 60%), III (60% or more)

molecule: c1ccc(-c2ccc(OCc3nnc(-c4ccccc4)o3)cc2)cc1
label: I

molecule: CC(C)Cc1ccc(C(C)c2nnc(COc3ccc(-c4ccccc4)cc3)o2)cc1 (configuration not stated)
label: III

molecule: Clc1ccc(-c2nnc(COc3ccc(-c4ccccc4)cc3)o2)c(Cl)c1
label: II

molecule: Sc1nnc(COc2ccc(-c3ccccc3)cc2)n1-c1ccc(Br)cc1
label: II

molecule: Cc1ccccc1-n1c(S)nnc1COc1ccc(-c2ccccc2)cc1
label: II

molecule: Fc1ccc(Nc2nnc(COc3ccc(-c4ccccc4)cc3)o2)cc1
label: II

molecule: Cc1ccccc1Nc1nnc(COc2ccc(-c3ccccc3)cc2)s1
label: I

molecule: CCCCNc1nnc(COc2ccc(-c3ccccc3)cc2)s1
label: I

molecule: Cc1ccc(-n2c(S)nnc2COc2ccc(-c3ccccc3)cc2)c(C)c1
label: II

molecule: Clc1ccc(Nc2nnc(COc3ccc(-c4ccccc4)cc3)s2)cc1
label: II

molecule: Fc1ccc(Nc2nnc(COc3ccc(-c4ccccc4)cc3)s2)cc1
label: I

molecule: COc1ccc2cc(C(C)c3nnc(COc4ccc(-c5ccccc5)cc4)o3)ccc2c1 (configuration not stated)
label: I

molecule: CCCCNc1nnc(COc2ccc(-c3ccccc3)cc2)o1
label: I

molecule: Cc1ccc(Nc2nnc(COc3ccc(-c4ccccc4)cc3)s2)c(C)c1
label: II

molecule: Sc1nnc(COc2ccc(-c3ccccc3)cc2)n1-c1ccc(Cl)cc1
label: I

molecule: CCCCn1c(S)nnc1COc1ccc(-c2ccccc2)cc1
label: III

molecule: CC(C(=O)O)c1ccc(-c2ccccc2)c(F)c1 (configuration not stated) [FLURBIPROFEN]
label: III

molecule: Fc1ccc(-n2c(S)nnc2COc2ccc(-c3ccccc3)cc2)cc1
label: III

molecule: Brc1ccc(Nc2nnc(COc3ccc(-c4ccccc4)cc3)s2)cc1
label: III

molecule: Clc1ccc(-c2nnc(COc3ccc(-c4ccccc4)cc3)o2)cc1
label: III

* * *

Known UI of a selection of compounds
System: Rattus norvegicus
Assay: Gastrointestinal toxicity in rat assessed as gastric mucosal damage severity index administered at equimolar oral dose relative to 30 mg/kg flurbiprofen
Assay type: organism-based, Gastric mucosa
Set-up: dose 30 mg/kg, route oral
Conditions: in vivo

compound: CC(C(=O)O)c1ccc(-c2ccccc2)c(F)c1 (stereo not given)
UI: 1.666
--
compound: CCCCn1c(S)nnc1COc1ccc(-c2ccccc2)cc1
UI: 0.666
--
compound: Fc1ccc(-n2c(S)nnc2COc2ccc(-c3ccccc3)cc2)cc1
UI: 0.833
--
compound: Clc1ccc(-c2nnc(COc3ccc(-c4ccccc4)cc3)o2)cc1
UI: 1
--
compound: CC(C)Cc1ccc(C(C)c2nnc(COc3ccc(-c4ccccc4)cc3)o2)cc1 (stereo not given)
UI: 0.75

* * *

Tested on: Rattus norvegicus
Experiment: Antiinflammatory activity in Wistar rat assessed as inhibition of carrageenan-induced paw edema administered orally at equimolar oral dose relative to 10 mg/kg flurbiprofen measured after 4 hrs of carrageenan challenge
Assay type: functional
Known inhibition in vivo of a selection of compounds

compound: CCCCn1c(S)nnc1COc1ccc(-c2ccccc2)cc1
experimental_system: Rattus norvegicus
unit_of_measure: %
inhibition in vivo: 81.8

compound: Clc1ccc(-c2nnc(COc3ccc(-c4ccccc4)cc3)o2)cc1
experimental_system: Rattus norvegicus
unit_of_measure: %
inhibition in vivo: 77.3

compound: c1ccc(-c2ccc(OCc3nnc(-c4ccccc4)o3)cc2)cc1
experimental_system: Rattus norvegicus
unit_of_measure: %
inhibition in vivo: 18.2

compound: CCCCNc1nnc(COc2ccc(-c3ccccc3)cc2)s1
experimental_system: Rattus norvegicus
unit_of_measure: %
inhibition in vivo: 27.3

compound: Cc1ccc(Nc2nnc(COc3ccc(-c4ccccc4)cc3)s2)c(C)c1
experimental_system: Rattus norvegicus
unit_of_measure: %
inhibition in vivo: 56.8

compound: Clc1ccc(-c2nnc(COc3ccc(-c4ccccc4)cc3)o2)c(Cl)c1
experimental_system: Rattus norvegicus
unit_of_measure: %
inhibition in vivo: 57.6

compound: Fc1ccc(-n2c(S)nnc2COc2ccc(-c3ccccc3)cc2)cc1
experimental_system: Rattus norvegicus
unit_of_measure: %
inhibition in vivo: 79.5

compound: CC(C(=O)O)c1ccc(-c2ccccc2)c(F)c1 (stereo unspecified)
experimental_system: Rattus norvegicus
unit_of_measure: %
inhibition in vivo: 79.5

compound: Sc1nnc(COc2ccc(-c3ccccc3)cc2)n1-c1ccc(Br)cc1
experimental_system: Rattus norvegicus
unit_of_measure: %
inhibition in vivo: 31.8

compound: CC(C)Cc1ccc(C(C)c2nnc(COc3ccc(-c4ccccc4)cc3)o2)cc1 (stereo unspecified)
experimental_system: Rattus norvegicus
unit_of_measure: %
inhibition in vivo: 79.5

compound: Cc1ccccc1Nc1nnc(COc2ccc(-c3ccccc3)cc2)s1
experimental_system: Rattus norvegicus
unit_of_measure: %
inhibition in vivo: 29.5

compound: Fc1ccc(Nc2nnc(COc3ccc(-c4ccccc4)cc3)s2)cc1
experimental_system: Rattus norvegicus
unit_of_measure: %
inhibition in vivo: 29.5

compound: Clc1ccc(OCc2nnc(COc3ccc(-c4ccccc4)cc3)o2)c(Cl)c1
experimental_system: Rattus norvegicus
unit_of_measure: %
inhibition in vivo: 29.5

compound: Cc1ccc(-n2c(S)nnc2COc2ccc(-c3ccccc3)cc2)c(C)c1
experimental_system: Rattus norvegicus
unit_of_measure: %
inhibition in vivo: 54.5

compound: Clc1ccc(Nc2nnc(COc3ccc(-c4ccccc4)cc3)s2)cc1
experimental_system: Rattus norvegicus
unit_of_measure: %
inhibition in vivo: 54.5

compound: Clc1ccccc1-c1nnc(COc2ccc(-c3ccccc3)cc2)o1
experimental_system: Rattus norvegicus
unit_of_measure: %
inhibition in vivo: 63.6
